meta.source: patent US12133857B2

- assay_summary: in vivo
- cond: male, C57BL/6J, mouse, po, 500 mg/kg
parameter: half-life (h)
Give bare numbers, in h.

Entry under test: CCNC(=O)CC[C@H](N)C(=O)O [Theanine, L-theanine] . Its half-life was 2.07
